Cited source: patent US5952298A

# Test system: LoVo (human colon carcinoma)
# method: Cytotoxicity against LoVo cell line
# Format: cell-based
# reported-conditions: Table 2
Task for the reader: assign each of the following compounds its reported LoVo IC50.
One number for each entry, in ng/mL.

# annotated cases, reported LoVo IC50 shown
compound | readout-type | numeric-readout
COc1ccc(C[C@H]2NC(=O)/C=C/C[C@@H]([C@H](C)/C=C/c3ccccc3)OC(=O)[C@H](CC(C)C)OC(=O)[C@H](C)CNC2=O)cc1Cl [Cryptophycin 3] | LoVo IC50 | 0.6
COc1ccc(C[C@H]2NC(=O)/C=C/C[C@@H]([C@H](C)[C@H]3O[C@@H]3c3ccccc3)OC(=O)[C@H](CC(C)C)OC(=O)CCNC2=O)cc1 [Cryptophycin 24] | LoVo IC50 | 0.095
CC[C@H](C)[C@@H]1OC(=O)[C@H](C)CNC(=O)[C@@H](Cc2ccc(OC)c(Cl)c2)NC(=O)/C=C/C[C@@H]([C@H](C)/C=C/c2ccccc2)OC1=O [Cryptophycin 18] | LoVo IC50 | 4.5
COc1ccc(C[C@H]2NC(=O)/C=C/C[C@@H](C[C@H]3O[C@@H]3c3ccccc3)OC(=O)[C@H](CC(C)C)OC(=O)[C@H](C)CNC2=O)cc1Cl [Cryptophycin 40] | LoVo IC50 | 1.0
COc1ccc(C[C@H]2NC(=O)/C=C/C[C@@H](C/C=C/c3ccccc3)OC(=O)[C@H](CC(C)C)OC(=O)[C@H](C)CNC2=O)cc1Cl [Cryptophycin 28] | LoVo IC50 | 0.75

Would you be so kind as to report LoVo IC50 for each listed record?
1. CC(C)C[C@@H]1OC(=O)[C@H](C)CNC(=O)[C@@H](Cc2ccc(O)c(Cl)c2)NC(=O)/C=C/C[C@@H]([C@H](C)/C=C/c2ccccc2)OC1=O [Cryptophycin 17]
2. COc1ccc(C[C@H]2NC(=O)/C=C/C[C@@H]([C@H](C)/C=C/c3ccccc3)OC(=O)[C@H](CC(C)C)OC(=O)[C@H](C)CNC2=O)cc1 [Cryptophycin 4]
3. COc1ccc(C[C@H]2NC(=O)/C=C/C[C@@H]([C@H](C)[C@H]3O[C@@H]3c3ccccc3)OC(=O)[C@H](CC(C)C)OC(=O)[C@H](C)CNC2=O)cc1Cl [Cryptophycin 1]
4. COc1ccc(C[C@H]2NC(=O)/C=C/C[C@@H]([C@H](C)[C@H]3O[C@@H]3c3ccccc3)OC(=O)[C@H](CC(C)C)OC(=O)[C@H](C)CNC2=O)cc1 [Cryptophycin 2]
5. CC[C@H](C)[C@@H]1OC(=O)[C@H](C)CNC(=O)[C@@H](Cc2ccc(OC)c(Cl)c2)NC(=O)/C=C/C[C@@H]([C@H](C)[C@H]2O[C@@H]2c2ccccc2)OC1=O [Cryptophycin 54]
6. COc1ccc(C[C@H]2NC(=O)C[C@@H](C[C@H](O)[C@H](C)/C=C/c3ccccc3)OC(=O)[C@H](CC(C)C)OC(=O)[C@H](C)CNC2=O)cc1Cl [Cryptophycin 26]
7. COc1ccc(C[C@H]2NC(=O)/C=C/C[C@@H]([C@H](C)/C=C/c3ccccc3)OC(=O)[C@H](CC(C)C)OC(=O)CCNC2=O)cc1Cl [Cryptophycin 29]
8. COc1ccc(C[C@H]2NC(=O)/C=C/C[C@@H]([C@H](C)[C@H]3O[C@@H]3c3ccccc3)OC(=O)[C@H](CC(C)C)OC(=O)CCNC2=O)cc1Cl [Cryptophycin 21]

[5.9, 2.5, 0.001, 0.021, 2.2, 9.8, 0.49, 0.0003]

Would you be so kind as to report LoVo IC50 for each listed record?
1. COc1ccc(C[C@H]2NC(=O)/C=C/C[C@@H]([C@H](C)[C@@H](O)[C@@H](Cl)c3ccccc3)OC(=O)[C@H](CC(C)C)OC(=O)[C@H](C)CNC2=O)cc1Cl [Cryptophycin 8]
2. COc1c(Cl)cc(C[C@H]2NC(=O)/C=C/C[C@@H]([C@H](C)[C@H]3O[C@@H]3c3ccccc3)OC(=O)[C@H](CC(C)C)OC(=O)[C@H](C)CNC2=O)cc1Cl [Cryptophycin 31]

[0.0022, 0.062]
